# targetOrSystem: T1, human IL-17A (human, UniProt Q16552 24-155)
# T1 construct: Recombinant; biotinylated in the ELISA; also called hIL-17; hIL17A
# T1 sequence (Q16552 24-155): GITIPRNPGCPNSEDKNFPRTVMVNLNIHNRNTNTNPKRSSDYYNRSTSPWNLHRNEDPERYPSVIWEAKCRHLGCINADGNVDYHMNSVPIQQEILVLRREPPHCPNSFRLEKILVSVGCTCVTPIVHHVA
# assayName: hIL17A ELISA
endpoint: pEC50
pEC50 here: minus log base 10 of the concentration, concentration in moles per litre.

Input line: Please indicate pEC50 recorded for IL17-h5C5.16 (antibody, V domains shown, IgG; constant regions not specified) VH: QVQLQQSGAELVRPGASVKLSCKALGYTFTDYEFHWVKQTPVHGLEWIGVIHPGNGGTAYNQNFRDKATLTADKSSSTAYMELSSLTSEDSGVYYCTRFLTYEGYFDYWGQGTALTVSS VL: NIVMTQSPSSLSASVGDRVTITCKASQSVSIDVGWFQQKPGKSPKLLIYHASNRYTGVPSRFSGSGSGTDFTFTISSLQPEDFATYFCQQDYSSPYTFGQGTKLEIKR
Output line: 10.70

Input line: Please indicate pEC50 recorded for IL17-h10F7.14 (antibody, V domains shown, IgG; constant regions not specified) VH: EVQLVQSGAEVKKPGSSVKVSCKASGYTFTDYEIHWVRQAPGQGLEWMGVNDPESGGTFYNQKFDGRVTITADKSTSTAYMELSSLRSEDTAVYYCARYYRYESFYGMDYWGQGTTVTVSS VL: EIVLTQSPSSLSASVGDRVTITCSASSSISYIYWFQQKPGKSPKRWIYATFELASGVPSRFSGSGSGTDYTLTISSLQPEDFATYYCHQRSSYPWTFGQGTKLEIKR
Output line: 9.89

Input line: Please indicate pEC50 recorded for IL17-h10F7.3 (antibody, V domains shown, IgG; constant regions not specified) VH: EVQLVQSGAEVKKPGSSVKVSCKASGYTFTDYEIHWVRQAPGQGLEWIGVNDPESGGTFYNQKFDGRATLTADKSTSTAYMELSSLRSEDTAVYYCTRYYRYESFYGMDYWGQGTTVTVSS VL: DIQMTQSPSSLSASVGDRVTITCSASSSISYIYWYQQKPGKAPKRLIYATFELASGVPSRFSGSGSGTDFTLTISSLQPEDFATYYCHQRSSYPWTFGQGTKLEIKR
Output line: 10.30

Input line: Please indicate pEC50 recorded for IL17-h5C5.11 (antibody, V domains shown, IgG; constant regions not specified) VH: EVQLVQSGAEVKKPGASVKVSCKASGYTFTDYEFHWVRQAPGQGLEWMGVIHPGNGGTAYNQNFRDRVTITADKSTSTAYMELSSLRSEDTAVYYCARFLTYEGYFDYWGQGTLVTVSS VL: EIVMTQSPATLSVSPGERATLSCKASQSVSIDVGWYQQKPGQAPRLLIYHASNRYTGIPARFSGSGSGTDFTLTISSLQPEDFAVYYCQQDYSSPYTFGQGTKLEIKR
Output line: 10.52

Input line: Please indicate pEC50 recorded for IL17-h10F7.17 (antibody, V domains shown, IgG; constant regions not specified) VH: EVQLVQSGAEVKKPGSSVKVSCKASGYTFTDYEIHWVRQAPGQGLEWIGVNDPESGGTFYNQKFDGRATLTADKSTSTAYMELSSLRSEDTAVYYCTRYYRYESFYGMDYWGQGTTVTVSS VL: QIVLTQSPDFQSVTPKEKVTITCSASSSISYIYWFQQKPDQSPKRWIYATFELASGVPSRFSGSGSGTDYTLTINSLEAEDAATYYCHQRSSYPWTFGQGTKLEIKR
Output line: 10.00

Input line: Please indicate pEC50 recorded for IL17-h10F7.1 (antibody, V domains shown, Cloned into IgG expression vectors; constant regions not specified) VH: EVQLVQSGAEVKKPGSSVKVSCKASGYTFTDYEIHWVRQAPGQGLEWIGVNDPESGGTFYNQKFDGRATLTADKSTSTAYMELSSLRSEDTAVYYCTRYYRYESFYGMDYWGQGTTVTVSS VL: QIVLTQSPAIMSASPGEKVTMTCSASSSISYIYWFQQKPGTSPKRWIYATFELASGVPARFSGSGSGTSYSLTISSMEAEDAATYYCHQRSSYPWTFGGGSKLEIKR
Output line: 8.77

Input line: Please indicate pEC50 recorded for IL17-h5C5.1 (antibody, V domains shown, IgG; constant regions not specified) VH: QVQLQQSGAELVRPGASVKLSCKALGYTFTDYEFHWVKQTPVHGLEWIGVIHPGNGGTAYNQNFRDKATLTADKSSSTAYMELSSLTSEDSGVYYCTRFLTYEGYFDYWGQGTALTVSS VL: NIVMTQTPKFLLVSPGDRVTITCKASQSVSIDVGWFQQKPGQSPKLLIYHASNRYTGVPDRFTGSGYGTDFTFTVNTVQAEDLAVYFCQQDYSSPYTFGGGTKLELKR
Output line: 9.00

Input line: Please indicate pEC50 recorded for IL17-h5C5.19 (antibody, V domains shown, IgG; constant regions not specified) VH: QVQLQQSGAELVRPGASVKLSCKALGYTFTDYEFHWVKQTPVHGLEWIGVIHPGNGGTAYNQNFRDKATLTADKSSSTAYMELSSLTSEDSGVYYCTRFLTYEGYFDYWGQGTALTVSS VL: NIVMTQSPATLSVSPGERATLSCKASQSVSIDVGWFQQKPGQSPRLLIYHASNRYTGVPARFSGSGSGTDFTLTISSLQPEDFAVYFCQQDYSSPYTFGQGTKLEIKR
Output line: 10.52

Input line: Please indicate pEC50 recorded for IL17-h5C5.17 (antibody, V domains shown, IgG; constant regions not specified) VH: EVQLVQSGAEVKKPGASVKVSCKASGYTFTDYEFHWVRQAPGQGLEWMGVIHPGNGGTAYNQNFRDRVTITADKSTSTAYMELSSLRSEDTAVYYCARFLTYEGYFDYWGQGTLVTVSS VL: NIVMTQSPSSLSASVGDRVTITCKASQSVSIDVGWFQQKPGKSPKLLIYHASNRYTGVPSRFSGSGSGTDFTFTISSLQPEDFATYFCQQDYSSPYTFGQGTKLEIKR
Output line: 10.52

Input line: Please indicate pEC50 recorded for IL17-h5C5.15 (antibody, V domains shown, IgG; constant regions not specified; also called h5C5.15 (VH.1b-Vk.3a)) VH: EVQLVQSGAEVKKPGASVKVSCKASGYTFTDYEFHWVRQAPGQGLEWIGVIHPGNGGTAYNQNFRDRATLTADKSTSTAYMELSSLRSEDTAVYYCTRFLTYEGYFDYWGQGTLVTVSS VL: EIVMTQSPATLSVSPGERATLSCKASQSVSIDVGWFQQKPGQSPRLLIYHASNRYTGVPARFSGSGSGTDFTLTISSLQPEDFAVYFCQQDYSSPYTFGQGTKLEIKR
Output line: 10.70
